Each recorded value in this set is attributed to patent US7863276B2.

Below: a set of entries, each annotated with reported EC50.
# STUDY SYSTEM: UniProt Q07869
# EXPERIMENT DESCRIPTION: PPARα GAL4 chimera transactivation assay in CV-1 cells
# TEST SETTINGS: transient transfection, luciferase reporter, 20-24 hours, read-out: PPAR alpha

- C[C@@H]1CN(c2ccc(OC(F)(F)F)cc2)C[C@H](C)N1S(=O)(=O)c1cccc2c1C[C@@H](C(=O)O)C2 [Compound 1]: > 100 µM

Please turn your attention to the following entry.
IN: Dear colleague, I am looking for the recorded EC50 of the following compound: C[C@@H]1CN(Cc2ccc(OC(F)(F)F)cc2)C[C@H](C)N1S(=O)(=O)c1cccc2c1C[C@@H](C(=O)O)C2 [Compound 2]
OUT: > 100 µM
